system: Trypanosoma brucei rhodesiense; assay: Trypanocidal activity against Trypanosoma brucei rhodesiense; type: functional, organism-based
Consider the following molecules and their measured IC50 readings.
Use nM as the unit, but write only the number.

Just so you know, measured IC50 for `N=c1n(CCOCCOCCn2c(=N)n(Cc3ccccc3)c3ccccc32)c2ccccc2n1Cc1ccccc1` came out at 1300

Per the records, this molecule ( N=c1n(CCN2CCCCC2)c2ccccc2n1CC(O)c1ccc(Cl)c(Cl)c1 (stereo not drawn) ) has IC50 equal to 200

Reported IC50 ( CN(C)CCn1c(=N)n(CC(O)c2ccc(Cl)c(Cl)c2)c2ccccc21 (stereo not drawn) ) = 600

====

system: Trypanosoma brucei rhodesiense; experiment: Inhibition of Trypanosoma brucei rhodesiense trypanothione reductase at 25 uM
ASSAY ENDPOINT: inhibition (%)
Write it as a number; the unit % goes unstated.

Worked examples, 3 molecules total:
N=c1n(Cc2ccccc2)c2ccccc2n1CC(O)c1ccc(Cl)cc1 (stereo not drawn) :: 32
C=CCn1c(=N)n(CC(O)c2ccc(OCC)cc2)c2ccccc21 (stereo not drawn) :: 6
CN(C)CCn1c(=N)n(CC(O)c2ccc(Cl)c(Cl)c2)c2ccccc21 (stereo not drawn) :: 92

Value of inhibition reported for the molecule CCCCn1c(=N)n(CC(O)c2ccc(Br)cc2)c2ccccc21 (stereo not drawn) is 42

The measured inhibition associated with COc1ccc(C(O)Cn2c(=N)n(CCN3CCCCC3)c3ccccc32)cc1 (stereo not drawn) reads 85

Entry CC(C)(C)C(O)Cn1c(=N)n(CCN2CCCCC2)c2ccccc21 (stereo not drawn) , inhibition reported as 66

Entry under test: `CCN(CC)CCn1c(=N)n(CC(=O)c2ccc(C)cc2)c2ccccc21` . Its inhibition was 91

Form: molecule = `C=CCn1c(=N)n(CCN(CC)CC)c2ccccc21` ; inhibition = 31

====

assay: Inhibition of Trypanosoma brucei rhodesiense trypanothione reductase
pIC50 values, listed per item
Reminder that pIC50 is minus the log10 of a molar concentration.

# count of solved cases: 2
COc1ccc(C(O)Cn2c(=N)n(CCN3CCCCC3)c3ccccc32)cc1 (stereo unspecified) :: 4.62
CCN(CC)CCn1c(=N)n(CC(=O)c2ccc(Cl)c(Cl)c2)c2ccccc21 :: 5.00

Now turn to the next compound.
Reported pIC50 ( `N=c1n(CCOc2ccccc2)c2ccccc2n1CCN1CCCCC1` ) = 5.40

====

experiment: Inhibition of Trypanosoma brucei rhodesiense trypanothione reductase
ASSAY ENDPOINT: IC50

CCn1c(=N)n(CCOCCOCCn2c(=N)n(CC)c3ccccc32)c2ccccc21 :: > 100 µM
c1ccc(OCCNc2ccccc2NCCN2CCCCC2)cc1 :: > 100 µM

Turning now to a further compound:
The compound N=c1n(CCN2CCOCC2)c2ccccc2n1CC(O)COc1ccccc1 (stereo not drawn) showed IC50 equal to > 100 µM

The measurements presented in this section are drawn from ChEMBL document CHEMBL1139083.
